TEST_METHOD_NOTES: ATG_DR4_LXR_CIS: Attagene CIS-FACTORIAL HepG2 Assay for human Liver X Receptor (LXR), DR4 submotif (AID 2282929)
ASSAY_SETUP: HepG2 Attagene DR4 cis-reporter, mRNA transcription; actives raise or lower the signal
Description: ATG_CIS is a cell-based, multiplexed-readout assay that uses HepG2, a human liver cell line, with measurements taken at 24 hours after chemical dosing in a 24-well plate.ATG_DR4_LXR_CIS is one of 52 assay component(s) measured or calculated from the ATG_CIS assay. […] This assay endpoint, ATG_DR4_LXR_CIS, was analyzed with bidirectional fitting relative to DMSO as the negative control and baseline of activity. […]
The source made the active and inactive calls. How the source made its calls: active means hit-call score of the fitted dose curve at least 0.9, where 1 is the maximum; inactive means score below 0.9.
Choose one outcome from this list and give only that: true (1) for active, false (0) for inactive

## Task Would you mind telling me which call this test gave Oc1ccc2c(c1)CCC2 ?
## Result false (0)

## Task Could you check what this test reported for CO[Si](CCCOCC1CO1)(OC)OC (centres undefined) ?
## Result false (0)

## Task Identify the outcome logged in this assay for the compound shown: O=C(c1ccccc1)c1ccc(Cl)cc1
## Result false (0)

## Task // param item: CCCCCCCCCCCCCC[P+](CCCC)(CCCC)CCCC ; yields the recorded call
## Result false (0)

## Task Can you look up the reported call for Cc1ccc(O)cn1 for me?
## Result false (0)

## Task Dear all, I need the recorded test outcome for CC(C)(C)c1cc(Cc2cc(C(C)(C)C)c(O)c(C(C)(C)C)c2)cc(C(C)(C)C)c1O , thank you.
## Result false (0)

## Task Entry O=C(O)CCC(F)(F)C(F)(F)C(F)(F)C(F)(F)C(F)(F)C(F)(F)C(F)(F)F : call = ?
## Result false (0)

## Task Record request — test call for O=C(O)C(F)(F)C(F)(F)C(F)(F)C(=O)O
## Result false (0)

## Task Test call, this compound: FC(F)(F)C(F)(F)C(F)(F)C(F)(F)C(F)(F)C(F)(F)C(F)(F)CCI
## Result false (0)

## Task Look up the recorded call for OCC1CCCO1 (centres undefined) in this test.
## Result false (0)

## Task What call does the record list for O=C(O)CCC(F)(F)C(F)(F)C(F)(F)F ?
## Result false (0)

## Task What outcome does the record of this test show for CN(N=O)C(=O)N[C@@H]1[C@@H](O)[C@H](O)[C@@H](CO)O[C@@H]1O ?
## Result false (0)

## Task Hi team, can someone confirm the assay call for C=CC(=O)OCCC(F)(F)C(F)(F)C(F)(F)C(F)(F)F ?
## Result true (1)

## Task Query: recorded result category for N#CCCOCCC#N in this test
## Result false (0)

## Task Dear colleague, could you share the recorded outcome for CCOC(=O)CCC(C)=O when you have a moment?
## Result false (0)

## Task Returns: the outcome recorded for OCCCCl in this assay.
## Result false (0)

## Task Dear all, I need the recorded test outcome for Brc1ccccn1 , thank you.
## Result false (0)

## Task Please share the test call associated with c1ccc(C[P+](c2ccccc2)(c2ccccc2)c2ccccc2)cc1 .
## Result true (1)

## Task Hi, do you know how OCCC(O)CO (centres undefined) came out in this test?
## Result false (0)

## Task Short answer needed: outcome of this test for CCC(Cc1c(I)cc(I)c(N)c1I)C(=O)O (centres undefined) ?
## Result false (0)

## Task Hey, what did the test say about CN(C)C(C)(C)CO ?
## Result false (0)

## Task What outcome does the record of this test show for O=c1cccc[nH]1 ?
## Result false (0)

## Task What is the recorded call for this compound in the test? O=C(O)C(F)(F)C(F)(F)C(F)(F)OC(F)(C(F)(F)F)C(F)(F)F
## Result true (1)

## Task What is the recorded call for this compound in the test? COC(=O)c1ccc(C=O)cc1
## Result false (0)

## Task Query: recorded result category for O=C(Cl)c1ccc(Cl)cc1Cl in this test
## Result false (0)

## Task For CO[Si](C)(CCC(F)(F)C(F)(F)C(F)(F)C(F)(F)C(F)(F)C(F)(F)F)OC , which call appears in the assay record?
## Result false (0)

## Task Outcome logged for CCOC(=O)C1CC(=O)C(=C(O)C2CC2)C(=O)C1 (centres undefined) in this assay:
## Result false (0)

## Task Could you kindly confirm the outcome this assay logged for C#CC(O)CCC (centres undefined) ?
## Result false (0)

## Task # lookup: test call for NCC(F)(F)C(F)(F)C(F)(F)C(F)(F)C(F)(F)C(F)(F)F
## Result false (0)

## Task In this assay, the call recorded for NC(=O)C(F)(F)C(F)(F)C(F)(F)F was what?
## Result false (0)

## Task Field: outcome | Entry: NC(O)(C(F)(F)F)C(F)(F)F
## Result false (0)

## Task Outcome? CSc1ccc(O)cc1C
## Result false (0)

## Task How did this test come out for CCOC(OCC)OCC ?
## Result false (0)

## Task Record request — test call for Cc1cnccn1
## Result false (0)
